test: RP, Thermo Scientific Hypercarb, 150 × 2.1 mm, 5 µm, 0.1 mL/min, estimated dead time 3.3 min; A: water + 0.1% formic acid, pH 3; B: methanol + 0.1% formic acid, pH 3; gradient (min/%B) 0/5 5/5 20/100 35/100 35.1/5 45/5
appliedConditions: stereoisomer not certain

{"compound": "c1ccc2ncccc2c1 [QUINOLINE]", "LC retention time (min)": 4.84}
{"compound": "CN1CCC[C@H]1c1cccnc1 [(S)-NICOTINE]", "LC retention time (min)": 4.86}
{"compound": "NCCCNCCCN [BIS(3-AMINOPROPYL)AMINE]", "LC retention time (min)": 41}
{"compound": "C[n+]1cccc(C(N)=O)c1 [1-METHYLNICOTINAMIDE]", "LC retention time (min)": 4.94}
{"compound": "NCCCCNCCCN [SPERMIDINE]", "LC retention time (min)": 41}
{"compound": "NC(CCCC(N)C(=O)O)C(=O)O (centres undefined) [LL-2,6-DIAMINOHEPTANEDIOATE]", "LC retention time (min)": 4.49}
{"compound": "c1ncc2[nH]cnc2n1 [PURINE]", "LC retention time (min)": 35.3}
{"compound": "NC(=O)CC[C@H](N)C(=O)O [L-GLUTAMINE]", "LC retention time (min)": 4.84}
{"compound": "Nc1cccc2ccccc12 [1-NAPHTHYLAMINE]", "LC retention time (min)": 30.6}
{"compound": "Cn1cncc1CCN [3-METHYLHISTAMINE]", "LC retention time (min)": 4.64}
{"compound": "N[C@@H](Cc1ccc(O)cc1)C(=O)O [L-TYROSINE]", "LC retention time (min)": 24.8}
{"compound": "O=c1cc[nH]c(=O)[nH]1 [URACIL]", "LC retention time (min)": 21.2}
{"compound": "CC1NCCc2cc(O)c(O)cc21 (centres undefined) [1-METHYL-6,7-DIHYDROXY-1,2,3,4-TETRAHYDROISOQUINOLINE]", "LC retention time (min)": 17.8}
{"compound": "Cc1ncc(C[n+]2csc(CCO)c2C)c(N)n1 [THIAMINE]", "LC retention time (min)": 19.1}
{"compound": "C[N+](C)(C)CCOP(=O)([O-])OCC(O)CO (centres undefined) [SN-GLYCERO-3-PHOSPHOCHOLINE]", "LC retention time (min)": 5.02}
{"compound": "NC(CCS)C(=O)O (centres undefined) [HOMOCYSTEINE]", "LC retention time (min)": 14}
{"compound": "CC1NC(=O)NC1CCCCCC(=O)O (centres undefined) [DETHIOBIOTIN]", "LC retention time (min)": 30}
{"compound": "N[C@@H](CCOC(=O)CCC(=O)O)C(=O)O [O-SUCCINYL-L-HOMOSERINE]", "LC retention time (min)": 16.2}
{"compound": "Cn1cnc(=N)c2[nH]cnc21 [3-METHYLADENINE]", "LC retention time (min)": 24.5}
{"compound": "N[C@H](CO)Cc1cnc[nH]1 [L-HISTIDINOL]", "LC retention time (min)": 4.68}
{"compound": "CS(=N)(=O)CCC(N)C(=O)O [L-METHIONINE SULFOXIMINE]", "LC retention time (min)": 4.77}
{"compound": "CN=C(N)N [METHYLGUANIDINE]", "LC retention time (min)": 4.05}
{"compound": "Cc1ncc(C[n+]2csc(CCOP(=O)(O)O)c2C)c(N)n1 [THIAMINE MONOPHOSPHATE]", "LC retention time (min)": 18}
{"compound": "NC(=O)C1CCCN1C(=O)C(Cc1cnc[nH]1)NC(=O)C1CCC(=O)N1 (centres undefined) [THYROTROPIN RELEASING HORMONE]", "LC retention time (min)": 15.7}
{"compound": "N[C@@H](CSCC(=O)O)C(=O)O [S-CARBOXYMETHYL-L-CYSTEINE]", "LC retention time (min)": 14.8}
{"compound": "Cn1cncc1CC(N)C(=O)O [N(PAI)-METHYL-L-HISTIDINE]", "LC retention time (min)": 4.77}
{"compound": "CC(=O)NC(CCC(=O)O)C(=O)O (racemic) [N-ACETYL-DL-GLUTAMIC ACID]", "LC retention time (min)": 24}
{"compound": "NC(CCSSCCC(N)C(=O)O)C(=O)O (centres undefined) [HOMOCYSTINE]", "LC retention time (min)": 14}
{"compound": "Cn1cnc2c(ncn2C2OC(CO)C(O)C2O)c1=N (centres undefined) [1-METHYLADENOSINE]", "LC retention time (min)": 21.8}
{"compound": "CCC(NC(=O)CCC(N)C(=O)O)C(=O)NCC(=O)O (centres undefined) [OPHTHALMIC ACID]", "LC retention time (min)": 18.5}
{"compound": "N[C@@H](CCSC[C@H](N)C(=O)O)C(=O)O [L-CYSTATHIONINE]", "LC retention time (min)": 4.86}
{"compound": "O=C(O)Cc1c[nH]c2ccc(O)cc12 [5-HYDROXYINDOLEACETATE]", "LC retention time (min)": 30.8}
{"compound": "NC(=O)c1ccc[n+](C2OC(COP(=O)([O-])O)C(O)C2O)c1 (centres undefined) [NICOTINAMIDE MONONUCLEOTIDE]", "LC retention time (min)": 26.7}
{"compound": "NC(C(=O)O)C(O)C(O)C(O)CO (centres undefined) [GLUCOSAMINATE]", "LC retention time (min)": 4.77}
{"compound": "NC(N)=NCC(=O)O [GUANIDINOACETATE]", "LC retention time (min)": 5.04}
{"compound": "N[C@@H](Cc1cnc[nH]1)C(=O)O [L-HISTIDINE]", "LC retention time (min)": 4.72}
{"compound": "O=C(O)CCCCC1SCC2NC(=O)NC21 (centres undefined) [BIOTIN]", "LC retention time (min)": 30.7}
{"compound": "NC(N)=NCCCC(=O)O [4-GUANIDINOBUTANOATE]", "LC retention time (min)": 13}
{"compound": "CC1C(=O)Nc2ccccc21 (centres undefined) [3-METHYL-2-OXINDOLE]", "LC retention time (min)": 32.3}
{"compound": "CN1CC(=O)NC1=N [CREATININE]", "LC retention time (min)": 4.94}
{"compound": "Cc1cnc(=O)[nH]c1N [5-METHYLCYTOSINE]", "LC retention time (min)": 16.9}
{"compound": "NC(N)=NCCC[C@H](N)C(=O)O [L-ARGININE]", "LC retention time (min)": 4.77}
{"compound": "N[C@@H](CSSC[C@H](N)C(=O)O)C(=O)O [L-CYSTINE]", "LC retention time (min)": 4.99}
{"compound": "Nc1ccnc(=O)[nH]1 [CYTOSINE]", "LC retention time (min)": 13.9}
